Data origin, for the record: paper PMC7893915

System: CYP6M2, CYP6P3 and CYP6P9a
Assay: Pyrethroid metabolism (insecticide depletion), across CYP6M2, CYP6P3 and CYP6P9a
Assay type: in vitro ADME, Anopheles gambiae and An. funestus
Conditions: mean ± SD across CYP6M2, CYP6P3, CYP6P9a
Source text: In this study, the half maximal inhibitory concentration (IC50), which provides a value for inhibition of each P450 by each pyrethroid (also referred to as ‘binding affinity’), and the percentage depletion, which gives a value for metabolism of each pyrethroid by each P450 (also referred to as vulnerability to metabolic attack), were both included as parameters to establish a P450s structural activity relationship model. […]
Listing of entries alongside the reported % Insecticide depletion Mean across P450s.
OUTCOME_MEASURE: % Insecticide depletion Mean across P450s (%)

- MOLECULE: "Cc1c(COC(=O)[C@@H]2[C@H](/C=C(\\Cl)C(F)(F)F)C2(C)C)cccc1-c1ccccc1 (racemic)"
  VAL: 56.3
- MOLECULE: "CC1(C)[C@H](C(=O)O[C@H](C#N)c2cccc(Oc3ccccc3)c2)[C@@H]1C=C(Br)Br"
  VAL: 83.5
- MOLECULE: "CCOc1ccc(C(C)(C)COCc2cccc(Oc3ccccc3)c2)cc1"
  VAL: 89.0
- MOLECULE: "CC1(C)[C@H](C(=O)O[C@H](C#N)c2cccc(Oc3ccccc3)c2)[C@@H]1/C=C(\\Cl)C(F)(F)F (racemic)"
  VAL: 66.6
- MOLECULE: "CC1(C)C(C=C(Cl)Cl)C1C(=O)OC(C#N)c1cccc(Oc2ccccc2)c1 (centres unmarked)"
  VAL: 74.9
